Below, each entry is listed alongside its reported Human GLP-1 R activity (cAMP release), % activity with respect to control.
- tested-system: Human GLP-1 receptor (Homo sapiens, UniProt P43220)
- Construct: The full-length cDNA was cloned in pcDNA3.1(+); expressed in transfected cells
- Sequence (P43220 24-463): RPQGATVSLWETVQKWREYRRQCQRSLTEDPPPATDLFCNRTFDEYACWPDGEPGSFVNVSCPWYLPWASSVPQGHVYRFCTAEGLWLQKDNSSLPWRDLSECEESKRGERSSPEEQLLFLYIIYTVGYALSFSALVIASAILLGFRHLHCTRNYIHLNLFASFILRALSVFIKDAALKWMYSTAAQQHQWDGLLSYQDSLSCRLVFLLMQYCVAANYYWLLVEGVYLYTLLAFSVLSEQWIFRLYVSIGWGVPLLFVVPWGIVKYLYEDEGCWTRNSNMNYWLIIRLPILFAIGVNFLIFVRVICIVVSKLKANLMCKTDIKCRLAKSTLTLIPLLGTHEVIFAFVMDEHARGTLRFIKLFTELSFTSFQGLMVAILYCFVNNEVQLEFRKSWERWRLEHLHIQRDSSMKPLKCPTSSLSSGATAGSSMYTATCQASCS
- protocol-text: In vitro Human GLP-1 R agonist activity (cyclic AMP determination) in CHO/human GLP1R cells
- Type: cell-based
- test-conditions: 1 nM test compound
Please reply with the bare figure in % and do not write the unit itself.

# example entries with known answers
# compound, experimental-value
rows = [
    ("CCc1cc(OC)ccc1-c1ccc(CC(NC(=O)[C@H](CC(=O)O)NC(=O)[C@H](CO)NC(=O)[C@@H](NC(=O)[C@H](Cc2ccccc2)NC(=O)[C@@H](NC(=O)CNC(=O)C(CCC#N)NC(=O)C(C)(C)NC(=O)[C@@H](N)Cc2c[nH]cn2)[C@@H](C)O)[C@@H](C)O)C(=O)NC(CCCc2ccc(C(F)(F)F)cc2F)C(N)=O)cc1 (single isomer, unassigned)", 69),
    ("CCc1cc(OC)ccc1-c1ccc(CC(NC(=O)[C@H](CC(=O)O)NC(=O)[C@H](CO)NC(=O)[C@@H](NC(=O)C(C)(Cc2ccccc2F)NC(=O)[C@@H](NC(=O)CNC(=O)C(CCC#N)NC(=O)C(C)(C)NC(=O)[C@@H](N)Cc2c[nH]cn2)[C@H](C)O)[C@H](C)O)C(=O)NC(CCCc2ccccc2)C(N)=O)cc1 (single isomer, unassigned)", 82),
]

Ask: Sample CCc1cc(OC)ccc1-c1ccc(CC(NC(=O)[C@H](CC(=O)O)NC(=O)[C@H](CO)NC(=O)[C@@H](NC(=O)C(C)(Cc2ccccc2F)NC(=O)[C@@H](NC(=O)CNC(=O)[C@H](CC(C(F)(F)F)C(F)(F)F)NC(=O)C(C)(C)NC(=O)[C@@H](N)Cc2c[nH]cn2)[C@@H](C)O)[C@H](C)O)C(=O)NC(CCCc2ccccc2F)C(N)=O)cc1 (single isomer, unassigned) — what was its Human GLP-1 R activity (cAMP release), % activity with respect to control?
Result: 99

Ask: Need Human GLP-1 R activity (cAMP release), % activity with respect to control, item CCc1cc(OC)ccc1-c1ccc(CC(NC(=O)[C@H](CC(=O)O)NC(=O)[C@H](CO)NC(=O)[C@@H](NC(=O)[C@H](Cc2ccccc2)NC(=O)[C@@H](NC(=O)CNC(=O)C(CCC#N)NC(=O)C(C)(C)NC(=O)[C@@H](N)Cc2c[nH]cn2)[C@@H](C)O)[C@@H](C)O)C(=O)NC(CCCc2ccccc2Cl)C(N)=O)cc1 (single isomer, unassigned)
Result: 78

Ask: Fill blank: measured Human GLP-1 R activity (cAMP release), % activity with respect to control of the compound CCc1cc(OC)ccc1-c1ccc(CC(NC(=O)[C@H](CC(=O)O)NC(=O)[C@H](CO)NC(=O)[C@@H](NC(=O)[C@H](Cc2ccccc2)NC(=O)[C@@H](NC(=O)CNC(=O)C(CCC#N)NC(=O)C(C)(C)NC(=O)[C@@H](N)Cc2c[nH]cn2)[C@@H](C)O)[C@@H](C)O)C(=O)NC(CCCc2ccccc2F)C(N)=O)cc1 (single isomer, unassigned) is ____.
Result: 40

Ask: Any idea what its Human GLP-1 R activity (cAMP release), % activity with respect to control is? The compound is CCc1cc(OC)ccc1-c1ccc(CC(CNC(CCCc2ccccc2F)C(N)=O)NC[C@H](CC(=O)O)NC(=O)[C@H](CO)NC(=O)[C@@H](NC(=O)C(C)(Cc2ccccc2F)NC(=O)[C@@H](NC(=O)CNC(=O)[C@H](CCC(N)=O)NC(=O)C(C)(C)NC(=O)[C@@H](N)Cc2c[nH]cn2)[C@H](C)O)[C@H](C)O)cc1 (single isomer, unassigned)
Result: 86
